All figures here come from ChEMBL document CHEMBL1147967.

Form field: Activity (one value per entry).
System: Mus musculus
Experiment: Anticoagulant activity in ICR mouse plasma assessed as PT-prolongation at 100 mg/kg, po after 0.5 hrs relative to control
Assay type: functional
Hi! Could you send only the number? It should be in %, unit omitted.

Look over these answered cases.
CC(=N)N1CC[C@H](Oc2ccc([C@H](Cc3ccc4ccc(C(=N)N)cc4c3)C(=O)O)cc2)C1 [DX-9065A]	151
CCOC(=O)CS(=O)(=O)N(Cc1ccc2ccc(/C(N)=N\O)cc2c1)C1CCN(S(=O)(=O)c2cc(OC)ccc2OC)CC1	101
CCOC(=O)CC(=O)N(Cc1ccc2ccc(/C(N)=N\O)cc2c1)C1CCN(S(=O)(=O)c2cc(OC)ccc2OC)CC1	109
CCOC(=O)CC(=O)N(C/C=C/c1cccc(/C(N)=N\O)c1)C1CCN(S(=O)(=O)c2cc(OC)ccc2OC)CC1	187

I am curious: what Activity value has been reported for `COc1ccc(OC)c(S(=O)(=O)N2CCC(N(C/C=C/c3cccc(C(=N)N)c3)C(=O)CC(=O)O)CC2)c1` ?
104

I am curious: what Activity value has been reported for `CCOC(=O)CS(=O)(=O)N(C/C=C/c1cccc(/C(N)=N\O)c1)C1CCN(S(=O)(=O)c2cc(OC)ccc2OC)CC1` ?
116
